# study.system: reduced folate carrier 1 (Mus musculus)
# assay.protocol: Affinity towards RFC (Reduced folate carrier) measured by the inhibition of [3H]MTX uptake
reported.property: pKi
Numbers only, as −log10 of the molar value.

Find the recorded pKi belonging to C#CCN(Cc1cc2c(=O)[nH]c(C)nc2cc1C)c1ccc(C(=O)N[C@@H](CCC(=O)N[C@H](CCC(=O)O)C(=O)O)C(=O)O)cc1 and report it. 3.70
